tested on: Entamoeba histolytica Meah; assay: In vitro antiamebic activity by serial dilutions in monophasic Pavlova medium; assay type: cell-based; details: Dosage IX; 48 hours, 37° C.
Documented minimal amoebicidal concentration across a set of molecules
Please state the figure in µg/mL; there is no need to write the unit.

The following molecules have reported results that may help.
# molecule, measured endpoint, unit, reported
rows = [
    ("CCOCCN(Cc1ccc(Oc2ccc(N)cc2)cc1)C(=O)C(Cl)Cl", "minimal amoebicidal concentration", "µg/mL", 0.026),
    ("CCOCCN(Cc1ccc(Oc2ccc(NC(C)=O)cc2)cc1)C(=O)C(Cl)Cl", "minimal amoebicidal concentration", "µg/mL", 0.017),
    ("CCOCCN(Cc1ccc(CN(CCOCC)C(=O)C(Cl)Cl)cc1)C(=O)C(Cl)Cl", "minimal amoebicidal concentration", "µg/mL", 0.087),
    ("CCOCCN(Cc1ccc(Oc2ccc([N+](=O)[O-])cc2)cc1)C(=O)C(Cl)Cl [Etofamide]", "minimal amoebicidal concentration", "µg/mL", 0.058),
]

// next item, minimal amoebicidal concentration requested
[in] Return the recorded minimal amoebicidal concentration value; entry: CN(C(=O)C(Cl)Cl)c1ccc(OC(=O)c2ccco2)cc1 [Diloxanide furoate]
[out] 0.19
